Tested on: Oryctolagus cuniculus
procedure_summary: Ability to penetrate the albino rabbit eye and to inhibit the target enzyme in an homogenate of the iris-ciliary body at 1 hr postdosing, ex vivo when dosed in 0.1% aqueousi (hydroxymethyl) cellulose.
Format: functional
Measured Inhibition accompanies every entry in the list below.
Numbers only here, please. The scale is %.

Observe how each entry below is paired with its result.
1. CC(C)CNCc1ccccc1S(=O)(=O)c1csc(S(N)(=O)=O)c1.Cl ... 47
2. NS(=O)(=O)c1cc(S(=O)(=O)c2ccc(O)cc2)co1 ... 100
3. Cl.NS(=O)(=O)c1cc(S(=O)(=O)c2ccc(CNCc3ccccn3)cc2)cs1 ... 75
4. CCN(CC)Cc1cc(C(=O)c2csc(S(N)(=O)=O)c2)ccc1O.Cl ... 54
5. CC(C)CNCc1ccc(C(=O)c2csc(S(N)(=O)=O)c2)cc1.Cl ... 77
6. CN(C)Cc1cc(S(=O)(=O)c2csc(S(N)(=O)=O)c2)ccc1O.Cl ... 40
7. CCCCNCc1ccc(S(=O)(=O)c2csc(S(N)(=O)=O)c2)cc1.Cl ... 48
8. CN(C)Cc1cc(S(=O)(=O)c2coc(S(N)(=O)=O)c2)ccc1O.Cl ... 78

Name the recorded Inhibition of the item `CCCCNCc1ccc(C(=O)c2csc(S(N)(=O)=O)c2)cc1.Cl` in your answer.
68

Name the recorded Inhibition of the item `CNCc1ccc(C(=O)c2csc(S(N)(=O)=O)c2)cc1.Cl` in your answer.
13
